Hi there, I'd appreciate the recorded Activity for every entry that follows.
# protocol.text: Change in Cmax in rat at 37 umol/kg, po measured upto 72 hrs by LC-MS/MS analysis
# Format: ADME, organism-based
# test.parameters: in vivo, at 37 µmol/kg
Where a SMILES comes first, the peptide text is derived from it. [ ]: non-standard residue; d: D form. dTrp(1-Me) = Cn1cc(C[C@@H](N)C(=O)O)c2ccccc21
Answer with a number only, understood to be in %.

### Prompt Please supply the value of reported Activity for the item CCOC(=O)[C@@H](Cc1cn(C)c2ccccc12)NC(=O)[C@@H](N)CCC(N)=O.O=P(O)(O)O
### Response -32

### Prompt Quote Activity reported for Cl.Cn1cc(C[C@@H](N)C(=O)OCC(O)CO)c2ccccc21 (stereo partly drawn) please.
### Response 28

### Prompt Name the recorded Activity of the item Cn1cc(C[C@@H](N)C(=O)OCC(O)CO)c2ccccc21.O=S(=O)(O)O (stereo partly drawn) in your answer.
### Response 2

### Prompt Give reported Activity value for Cn1cc(C[C@@H](NC(=O)CN)C(=O)O)c2ccccc21.O=P(O)(O)O (H-Gly-[dTrp(1-Me)]-OH)
### Response -3

### Prompt Using known records, supply Activity for Cl.Cn1cc(C[C@@H](N)C(=O)OCC2CCNCC2)c2ccccc21
### Response -69

### Prompt Using the record for CCOC(=O)[C@@H](Cc1cn(C)c2ccccc12)NC(=O)[C@@H](N)CC(C)C.Cl , state its measured Activity.
### Response 92

### Prompt Note down Activity recorded for CCOC(=O)[C@@H](Cc1cn(C)c2ccccc12)NC(=O)[C@@H](N)CC(C)C.O=S(=O)(O)c1ccccc1
### Response 29

### Prompt # return recorded Activity for input Cn1cc(C[C@@H](N)C(=O)O)c2ccccc21
### Response 0

### Prompt Consider the compound CCOC(=O)[C@@H](Cc1cn(C)c2ccccc12)NC(=O)[C@@H](N)CCC(N)=O.Cl and give its recorded Activity.
### Response 12

### Prompt Give the reported Activity for this compound. Cn1cc(C[C@@H](NC(=O)[C@@H](N)CCCCN)C(=O)O)c2ccccc21
### Response -17

### Prompt Specify Activity for CCOC(=O)[C@@H](Cc1cn(C)c2ccccc12)NC(=O)[C@@H](N)CCC(N)=O.CS(=O)(=O)O and stop.
### Response 4

### Prompt Consider the compound CCOC(=O)[C@@H](Cc1cn(C)c2ccccc12)NC(=O)[C@@H](N)CC(C)C.O=P(O)(O)O . State its measured Activity.
### Response 84

### Prompt Provide measured Activity value, entry: Cn1cc(C[C@@H](N)C(=O)OCC2CCNCC2)c2ccccc21.O=P(O)(O)O
### Response -79

### Prompt Give recorded Activity. Cl.Cn1cc(C[C@@H](NC(=O)CN)C(=O)O)c2ccccc21 (H-Gly-[dTrp(1-Me)]-OH)
### Response 10

### Prompt Consider the compound Cn1cc(C[C@@H](N)C(=O)OCC(O)CO)c2ccccc21.O=P(O)(O)O (stereo partly drawn) and give its recorded Activity.
### Response 37

### Prompt Specify reported Activity for the compound shown: CCOC(=O)[C@@H](Cc1cn(C)c2ccccc12)NC(=O)[C@@H](N)CC(C)C.O=S(=O)(O)O
### Response -23

### Prompt Answer with reported Activity of Cl.Cn1cc(C[C@@H](NC(=O)[C@@H](N)CCCCN)C(=O)O)c2ccccc21
### Response 8

### Prompt For the compound CS(=O)(=O)O.Cn1cc(C[C@@H](N)C(=O)OCC(O)CO)c2ccccc21 (stereo partly drawn) , give its measured Activity value.
### Response -27

* * *

# protocol.text: Stability in human plasma assessed as parent compound remaining measured after 24 hrs by LC-MS/MS analysis
# Format: ADME, cell-free
# test.parameters: read-out: Stabilty
Where a SMILES comes first, the peptide text is derived from it. [ ]: non-standard residue; d: D form. dTrp(1-Me) = Cn1cc(C[C@@H](N)C(=O)O)c2ccccc21
We label by threshold. Values of remaining at 24 h strictly beneath 80% are fulfilled. Values of 80% and up are not fulfilled.

### Prompt Record Cl.Cn1cc(C[C@@H](N)C(=O)OCCC2CCNCC2)c2ccccc21 : is its remaining at 24 h strictly below 80%?
### Response fulfilled

### Prompt A record lists Cl.Cn1cc(C[C@@H](NC(=O)CN)C(=O)O)c2ccccc21 (H-Gly-[dTrp(1-Me)]-OH) . Is its remaining at 24 h below 80%?
### Response fulfilled

### Prompt For this compound, is remaining at 24 h lower than 80%? Cl.Cn1cc(C[C@@H](NC(=O)[C@@H](N)Cc2c[nH]c3ccccc23)C(=O)O)c2ccccc21
### Response not fulfilled

### Prompt Hello, is remaining at 24 h of the following compound strictly smaller than 80%? CC(C)C(NC(=O)[C@H](N)Cc1cn(C)c2ccccc12)C(=O)O.Cl (single isomer, unassigned)
### Response fulfilled

### Prompt Please check: remaining at 24 h for CCOC(=O)[C@@H](Cc1cn(C)c2ccccc12)NC(=O)[C@@H](N)CC(C)C.Cl , strictly under 80% or not?
### Response fulfilled

* * *

# protocol.text: Change in AUC (infinity) in rat at 37 umol/kg, po measured upto 72 hrs by LC-MS/MS analysis
# Assay type: ADME, organism-based
# test.parameters: in vivo, at 37 µmol/kg
Where a SMILES comes first, the peptide text is derived from it. [ ]: non-standard residue; d: D form. dTrp(1-Me) = Cn1cc(C[C@@H](N)C(=O)O)c2ccccc21
Assign Activity to each entry below.
API: value field is a number in %; no unit string.

### Prompt Provide Activity value for the following molecule: CCOC(=O)[C@@H](Cc1cn(C)c2ccccc12)NC(=O)[C@@H](N)CCSC.O=P(O)(O)O
### Response 2

### Prompt Tell me Activity reported for Cn1cc(C[C@@H](NC(=O)[C@@H](N)CCCCN)C(=O)O)c2ccccc21.O=S(=O)(O)O
### Response 10

### Prompt Give the measured Activity for CCOC(=O)[C@@H](Cc1cn(C)c2ccccc12)NC(=O)[C@@H](N)CCC(N)=O.O=S(=O)(O)O
### Response -20

### Prompt Identify measured Activity corresponding to CCOC(=O)[C@@H](Cc1cn(C)c2ccccc12)NC(=O)[C@@H](N)CC(C)C.CS(=O)(=O)O
### Response 127

### Prompt Give the reported Activity for this molecule. Cn1cc(C[C@@H](N)C(=O)OCC(O)CO)c2ccccc21.O=S(=O)(O)O (stereo partly specified)
### Response 21

### Prompt Item Cn1cc(C[C@@H](NC(=O)CN)C(=O)O)c2ccccc21.O=P(O)(O)O (H-Gly-[dTrp(1-Me)]-OH) : provide Activity
### Response 3

### Prompt Query Activity for CS(=O)(=O)O.Cn1cc(C[C@@H](N)C(=O)OCC(O)CO)c2ccccc21 (stereo partly specified)
### Response -27

### Prompt Tell me Activity reported for Cl.Cn1cc(C[C@@H](N)C(=O)OCC2CCNCC2)c2ccccc21
### Response -54

### Prompt Return the recorded Activity value; entry: Cn1cc(C[C@@H](NC(=O)[C@@H](N)CCCCN)C(=O)O)c2ccccc21.O=P(O)(O)O
### Response -17

### Prompt Identify Activity associated with the molecule Cn1cc(C[C@@H](NC(=O)[C@@H](N)CCCCN)C(=O)O)c2ccccc21
### Response -13

### Prompt Please give measured Activity of the following entry: Cl.Cn1cc(C[C@@H](NC(=O)[C@@H](N)CCCCN)C(=O)O)c2ccccc21
### Response -10

### Prompt // Input: CCOC(=O)[C@@H](Cc1cn(C)c2ccccc12)NC(=O)[C@@H](N)CCC(N)=O.Cl . Output its Activity only.
### Response -1

### Prompt // fetch Activity given entry CCOC(=O)[C@@H](Cc1cn(C)c2ccccc12)NC(=O)[C@@H](N)CCSC.Cl
### Response 13

### Prompt Please report the measured Activity for CCOC(=O)[C@@H](Cc1cn(C)c2ccccc12)NC(=O)[C@@H](N)CCC(N)=O
### Response -16

### Prompt For the molecule Cl.Cn1cc(C[C@@H](N)C(=O)OCC(O)CO)c2ccccc21 (stereo partly specified) , give its reported Activity.
### Response 21

### Prompt Please supply the value of reported Activity for the item CCOC(=O)[C@@H](Cc1cn(C)c2ccccc12)NC(=O)[C@@H](N)CC(C)C.O=S(=O)(O)O
### Response -5

### Prompt Give Activity for CCOC(=O)[C@@H](Cc1cn(C)c2ccccc12)NC(=O)[C@@H](N)CC(C)C.Cl
### Response 70

### Prompt Quote Activity reported for Cl.Cn1cc(C[C@@H](NC(=O)CN)C(=O)O)c2ccccc21 (H-Gly-[dTrp(1-Me)]-OH) please.
### Response 1

### Prompt Name the recorded Activity of the item Cn1cc(C[C@@H](N)C(=O)OCC2CCNCC2)c2ccccc21.O=P(O)(O)O in your answer.
### Response -64

### Prompt Tell me Activity reported for Cn1cc(C[C@@H](N)C(=O)O)c2ccccc21 [INDOXIMOD]
### Response 0

### Prompt Please give measured Activity of the following entry: Cn1cc(C[C@@H](N)C(=O)OCC(O)CO)c2ccccc21.O=P(O)(O)O (stereo partly specified)
### Response 46
